Taken from ChEMBL document CHEMBL1136782.

Target: Dihydrofolate reductase (Mycobacterium avium, UniProt O30463)
Sequence (O30463 whole entry): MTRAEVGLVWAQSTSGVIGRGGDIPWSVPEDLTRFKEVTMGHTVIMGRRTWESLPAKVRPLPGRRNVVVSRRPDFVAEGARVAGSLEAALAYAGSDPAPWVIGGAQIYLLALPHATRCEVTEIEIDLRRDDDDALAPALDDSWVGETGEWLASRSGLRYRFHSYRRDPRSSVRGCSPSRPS
parameter_measured: pIC50
Note: pIC50 values are expressed as the negative base-10 logarithm of concentration in M.

[in] For Dihydrofolate reductase (Mycobacterium avium, UniProt O30463), provide pIC50 of COc1ccc(C#CCCCC(=O)O)cc1Cc1cnc(N)nc1N please.
[out] 8.11

----------
Biological target: Bifunctional dihydrofolate reductase-thymidylate synthase (Toxoplasma gondii)
Sequence (Q07422 whole entry): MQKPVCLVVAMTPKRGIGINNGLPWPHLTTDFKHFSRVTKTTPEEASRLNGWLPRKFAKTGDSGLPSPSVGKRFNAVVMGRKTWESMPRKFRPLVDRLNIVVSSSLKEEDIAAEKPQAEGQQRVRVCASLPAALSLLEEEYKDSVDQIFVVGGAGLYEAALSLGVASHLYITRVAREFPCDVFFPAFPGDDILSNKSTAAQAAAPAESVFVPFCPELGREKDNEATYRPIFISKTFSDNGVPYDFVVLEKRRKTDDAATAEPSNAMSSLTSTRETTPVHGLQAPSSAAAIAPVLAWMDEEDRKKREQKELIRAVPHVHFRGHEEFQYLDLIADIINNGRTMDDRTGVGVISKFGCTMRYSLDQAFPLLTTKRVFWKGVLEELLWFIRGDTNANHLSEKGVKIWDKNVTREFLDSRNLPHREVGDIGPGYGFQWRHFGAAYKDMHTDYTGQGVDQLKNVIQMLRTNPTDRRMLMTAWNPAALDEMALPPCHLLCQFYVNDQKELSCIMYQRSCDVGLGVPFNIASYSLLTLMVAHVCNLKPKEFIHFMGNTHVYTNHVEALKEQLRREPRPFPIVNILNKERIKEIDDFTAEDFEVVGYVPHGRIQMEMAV
hey, just use true (1) if measured IC50 is less than 200 nM, otherwise false (0)

[in] Hello, I'm reviewing records and need to know if IC50 of Nc1nc(N)c2c(CNc3cccc4c3CCCC4)c[nH]c2n1 is below 200 nM. Could you check?
[out] false (0)

[in] And for Nc1nc(N)c2nc(-c3ccccc3)c(-c3ccccc3)nc2n1 ?
[out] false (0)

[in] Request: Cc1cccc(-c2nc3c(N)nc(N)nc3nc2N)c1
[out] true (1)

[in] Thanks! And Nc1nc(N)c2nc(CCSc3ccccc3)cnc2n1 ?
[out] false (0)

[in] Cool, now Nc1nc(N)c2nc(C(=O)c3ccccc3)c(-c3ccccc3)nc2n1
[out] false (0)

[in] // same read-out, input: COc1cc(Cc2cnc(N)nc2N)cc(OC)c1-n1cccc1
[out] false (0)
